Value source: the supplement of paper PMC7125110

B1: glmS ribozyme (parent)
chain: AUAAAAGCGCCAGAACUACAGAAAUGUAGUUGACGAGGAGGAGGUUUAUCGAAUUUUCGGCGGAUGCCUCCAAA

Variants of: B1
assay.procedure: self-cleavage kobs at 160 uM GlcN6P; higher = faster cleavage; RNA array
experimental.conditions: with glucosamine-6-phosphate
Variants at the floor of the assay were thinned out.
parameter: self-cleavage kobs at 160 uM GlcN6P

[[record]]
sequence_text = "AUAAAAGCACCAGGACUACAGAAAUGUAGUUGACGAGGAGGAGGUUUAUCGAAUUUUCGGCGGAUGCCUCCAAA"
result = "< 1e-05 s⁻¹"

[[record]]
sequence_text = "AUAAAAGCGCCAGAACUACAGAAAUGUAGUUGACGAGGAGGCGGUUUGUCGAAUAUUCGGCGGAUGCCUCCAAA"
result = "< 1e-05 s⁻¹"

[[record]]
sequence_text = "AUAAAAGCGCCAGAACUACAGAAAUGUAGUUGACGAGGAGAAGGUUUAUCGAAUUUUCGGCGGAUGCCUGCAAA"
result = "6.45e-05 s⁻¹"

[[record]]
sequence_text = "AUAAAAGCGCCAGAACUACAGAAAUGUAGUUGACGAGGAGGAGGUUUAUCGAAUUUUCGUCGGUUGCUUCCAAA"
result = "< 1e-05 s⁻¹"

[[record]]
sequence_text = "AUAAAAGCGCCAGAACUACAGAAAUGUAGUUGACGAGGAGGAGCUUUAUCGAAUUUUCGGCAGAUGCCUCCAAA"
result = "< 1e-05 s⁻¹"

[[record]]
sequence_text = "AUAAAAGCGCCAGAACUACAGAAAUGUAGUUGACGAGGAGGAGGUAUAUCAAAUUUUCGGCGGAUGCCUCCAAA"
result = "< 1e-05 s⁻¹"

[[record]]
sequence_text = "AUAAAAGCGCCAGAACUACAGAAAUGUAGUUGACGAGGAGGAGGUUUAUCGAAUUUUCGGGGCAUGCCUCCAAA"
result = "< 1e-05 s⁻¹"

[[record]]
sequence_text = "AUAAAAGCGCCAGAACUACAGAAAUGUAGUUGACGAGGUGGAGGUUAAUCGAAUUUUCGGCGGAUGCCUCCAAA"
result = "0.000791 s⁻¹"

[[record]]
sequence_text = "AUAAAAGCGCCAGAGCUACAGAAAUGUAGUUGACGAGGACGAGGUUUAUCGAAUUUUCGGCGGAUGCCUCCAAA"
result = "0.000354 s⁻¹"

[[record]]
sequence_text = "AUAAAAGCGCCAGAACUACAGAAAUGUAGUUGACGAGGAGGAGGUUUAUCGAAUUUUCGGCGGAUGCAUCGAAA"
result = "3.29e-05 s⁻¹"

[[record]]
sequence_text = "AUAAAAGCGUCAGAACUACAGAAAUGUAGUUGACGAGGAGGAGGGUUAUCGAAUUUUCGGCGGAUGCCUCCAAA"
result = "< 1e-05 s⁻¹"

